Source of measurements: PubChem BioAssay

Reported composite z-score by item:
- TESTED SYSTEM: Carbonic anhydrase 2 (Homo sapiens) (UniProt P00918)
- MEASUREMENT PROTOCOL: CAII small-molecule binders, profiling panel, biochemical, small-molecule microarray, Alexa647-labelled CAII (AID 1122)
- MEASUREMENT PARAMETERS: CAII-A647 binding fluorescence, higher = more signal
PROPERTY NAME: composite z-score

COMPOUND	TESTED SYSTEM	RESULT NUMBER
CC(C)(C)OC(=O)CC[C@]1(C(=O)O)N=C(c2ccc(OCCCO)cc2)O[C@H]1c1ccccc1N=[N+]=[N-]	Carbonic anhydrase 2 (Homo sapiens) (UniProt P00918)	0.838
C=C(/C(=C/C[C@@H](OC(C)=O)c1ccc(OCCO)cc1)c1cnc2ccccc2c1)C(C)C	Carbonic anhydrase 2 (Homo sapiens) (UniProt P00918)	0.425
COc1ccc(C(O)C2C=CC3C(=O)N(c4ccccc4)C(=O)C3N2Nc2ccc(C(C)C)cc2)cc1OCc1ccccc1 (configuration not stated)	Carbonic anhydrase 2 (Homo sapiens) (UniProt P00918)	0.576
COc1ccc(CCNC(=O)[C@@]2(Sc3ccc(C)cc3)CC(=O)N(C3CCCCC3)[C@@H]2c2ccc(CO)cc2I)cc1	Carbonic anhydrase 2 (Homo sapiens) (UniProt P00918)	0.513
O=C1O[C@H](c2ccccc2)[C@H](c2ccccc2)N2[C@H]1[C@@H](C(=O)N1CCN(c3ncccn3)CC1)[C@]1(C(=O)Nc3ccc(C#CC4=CCCCC4)cc31)[C@H]2c1ccc(O)cc1	Carbonic anhydrase 2 (Homo sapiens) (UniProt P00918)	0.413
CCCCN1CC=CC23O[C@@H]4C=CCOC(=O)[C@@H]4[C@H]2C(=O)N(CCCCCO)[C@@H]3C1=O (some centres not stated)	Carbonic anhydrase 2 (Homo sapiens) (UniProt P00918)	0.858
COc1ccc([Si](C)(C)[C@H]2[C@H](CC(=O)N3Cc4ccccc4C[C@H]3CO)O[C@@]3(C(=O)N(Cc4ccc(N5CCC5=O)cc4)c4ccccc43)[C@@H]2C)cc1	Carbonic anhydrase 2 (Homo sapiens) (UniProt P00918)	0.516

====

- MEASUREMENT PROTOCOL: MM1S myeloma cell viability, profiling panel, resazurin fluorescence, basal, 24 h, PK04 Diversity Set (AID 1174);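 also: MM1S multiple myeloma cell line; test concentration not given here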
- MEASUREMENT PARAMETERS: higher = more signal, called active from +8 up or from −8 down
Label scheme for z-score: lower than -0.2 is No, -0.2 and above is Yes.

MOLECULE	ANSWER LABEL
CCOC(=O)C[C@H]1[C@H](OC(=O)c2cc3ccccc3oc2=O)[C@@H](NC(=O)Cc2ccc(OC)cc2)c2cc(OCCCO)ccc2N1C(=O)c1ccccc1	No
O=C1C[C@]2(c3ccc([N+](=O)[O-])cc3)C(=O)N(CCN3CCOCC3)c3cc(CO)ccc3[C@H]2N1C1CCCCC1	No
C=CCOC(=O)[C@H]1[C@@H]2C(=O)O[C@@H](c3ccccc3)[C@@H](c3ccccc3)N2[C@@H](c2ccc(OCCOC(=O)[C@H]3C[C@H]4C(=O)N[C@@H](CC(C)C)C(=O)N4[C@H]3c3ccc(O)cc3)cc2)[C@]12C(=O)Nc1ccc(I)cc12	No
CC(C)N1C(=O)[C@@]2(Cc3ccccc31)c1ccccc1C(=O)N(C1CCCCC1)[C@H]2c1ccc(CO)cc1	Yes
COc1ccc([Si](C)(C)[C@@H]2[C@@H](CC(=O)N3Cc4ccccc4C[C@H]3CO)O[C@]3(C(=O)N(C)c4c(Br)cc(C)cc43)[C@H]2C)cc1	No
CCCCCC1=C2CNC(CCC)(C(=O)OC)C=C2C(C)C1=O (stereo unspecified)	No
